Assay: Hydrolytic stability in 0.5M hydrochloric acid at 25° for 20 hrs (NMR of residue)
Type: physicochemical
Conditions: 0.5 m hcl, 0.6 g in 20 ml of 0.5M hydrochloric acid, by NMR, read-out: decomposition of the imine to the ketone
Reported Metric: degraded at 20 h

{"columns": ["Molecule", "Reported Metric", "Test Value"],
 "data": [
  ["CNCCN=C1c2ccccc2C2CC2c2ccccc21 (stereo not shown) [reference compound]", "degraded at 20 h", "~40%"]
]}
